The measurements presented in this section are drawn from PubChem BioAssay (Tox21).

Assay: p53 small molecule agonists, cell-based qHTS assay with human liver microsomes: qHTS cell viability counter screen (AID 1963579); note: % is set by controls: 0 for no effect and ±100 for the full control effect; nearly all actives have a fitted effect of over 45% in size
Conditions: p53RE-bla HCT-116 viability, ATP luminescence, 16 h, HLM; series mostly up to 66 µM
Results filed as inconclusive are left out. The source made the active and inactive calls. Calls come from the whole dose curve.
Attribute Measured: activity change, negative = cytotoxicity

The examples below pair each entry with its known result.
CC(NN)c1ccccc1 (stereo not given)    -4.08% [at 13.5 µM] (inactive)
CC(=O)OCC[N+](C)(C)C    inactive
CN1C(=O)N(c2ccccc2Br)Cc2cnc(Nc3ccc4c(c3)OCC(CO)O4)nc21 (stereo not given)    inactive
CC1=C(C(=O)OC(C)C)C(c2cccc([N+](=O)[O-])c2)C(C(=O)OC2CN(C(c3ccccc3)c3ccccc3)C2)=C(N)N1 (stereo not given)    inactive

Attention now turns to another entry.
Req: Reported activity change, negative = cytotoxicity, compound OCC(O)[C@@H](O)[C@H](O)[C@H](O)CO[C@H]1O[C@H](CO)[C@@H](O)[C@H](O)[C@H]1O (stereo not given in full) : ____
Resp: inactive
